Experiment: Metabolic stability in dog liver S9 fraction assessed as compound remaining after 2 hrs
Assay type: ADME, subcellular, Canis lupus familiaris
Settings: read-out: Stability
Listing: remaining at 2 h of selected compounds
Give just the number in %; leave the unit off.

Smiles Notation	Readout Type	Number
CC(C)Cn1c2ccc(Nc3ncccn3)cc2c2c3c(c4c(c21)CCc1nn(C)cc1-4)C(=O)NC3	remaining at 2 h	65

Please find the next compound below.
Recorded remaining at 2 h (compound CCCn1c2ccc(Nc3ncccn3)cc2c2c3c(c4c(c21)CCc1nn(C)cc1-4)C(=O)NC3 ): 65

###

Test: Terminal half life in cynomolgus monkey at 0.5 mg/kg, iv
Format: ADME, organism-based, Macaca fascicularis
Set-up: dose 0.5 mg/kg, route intravenous
Conditions: in vivo, read-out: beta t1/2 (converted)
Readout Type: half-life (h)
Give just the number in h; leave the unit off.

Recorded half-life (compound CC(C)Cn1c2ccc(Nc3ncccn3)cc2c2c3c(c4c(c21)CCc1nn(C)cc1-4)C(=O)NC3 [CEP-11981] ): 1.7
